Provenance of the data: ChEMBL document CHEMBL1255573

molecular target: UniProt Q92731; experiment: Agonist activity at ERbeta-LBD in human U2OS cells transfected with Gal4-DBD assessed as increase of transactivation activity after 18 hrs by luciferase reporter gene assay relative to 17-beta-estradiol; type: functional, cell-based
metric: Activity (%)
Reply with just the number (in %).

Tell me measured Activity for C[C@]12CC[C@@H]3c4ccc(O)cc4CC[C@H]3[C@@H]1CC[C@@]2(O)C/C=C/CC(F)(F)C(F)(F)C(F)(F)F please.
0.02

Continuing:
Annotate the compound COc1ccc2c(c1)CC[C@@H]1[C@@H]2CC[C@@]2(C)[C@H]1CC[C@@]2(O)/C=C/CC(F)(F)C(F)(F)C(F)(F)F with its measured Activity.
0.01

Item C[C@]12CC[C@@H]3c4ccc(O)cc4CC[C@H]3[C@@H]1CC[C@@]2(O)C/C=C/CC(F)(F)C(F)(F)C(F)(F)C(F)(F)C(F)(F)C(F)(F)F : provide Activity
0.88

Give Activity for the following compound: C[C@]12CC[C@@H]3c4ccc(O)cc4CC[C@H]3[C@@H]1CC[C@@]2(O)/C=C/CC(F)(F)C(F)(F)C(F)(F)F
0.35

###

Target protein (sequence): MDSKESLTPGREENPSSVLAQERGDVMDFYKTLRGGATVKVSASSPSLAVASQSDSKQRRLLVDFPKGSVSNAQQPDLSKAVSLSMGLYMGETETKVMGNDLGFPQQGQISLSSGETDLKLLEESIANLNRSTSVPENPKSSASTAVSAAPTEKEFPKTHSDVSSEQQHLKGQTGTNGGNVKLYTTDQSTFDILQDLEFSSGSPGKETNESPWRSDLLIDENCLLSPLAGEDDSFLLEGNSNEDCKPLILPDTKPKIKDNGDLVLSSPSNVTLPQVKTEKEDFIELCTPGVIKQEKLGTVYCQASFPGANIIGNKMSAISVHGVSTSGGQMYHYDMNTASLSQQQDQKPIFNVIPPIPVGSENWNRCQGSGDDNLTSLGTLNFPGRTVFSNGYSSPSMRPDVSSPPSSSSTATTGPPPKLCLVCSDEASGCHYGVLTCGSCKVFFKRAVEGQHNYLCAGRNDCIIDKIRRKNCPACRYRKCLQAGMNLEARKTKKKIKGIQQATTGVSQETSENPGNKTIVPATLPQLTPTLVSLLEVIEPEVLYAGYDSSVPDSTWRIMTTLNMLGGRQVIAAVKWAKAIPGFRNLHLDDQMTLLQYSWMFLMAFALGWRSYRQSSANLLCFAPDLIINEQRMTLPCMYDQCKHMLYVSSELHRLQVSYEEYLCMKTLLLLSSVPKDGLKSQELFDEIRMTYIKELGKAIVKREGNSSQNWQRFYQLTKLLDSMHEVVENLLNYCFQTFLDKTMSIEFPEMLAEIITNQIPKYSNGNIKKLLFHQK
metric: pIC50
Worth noting: pIC50 values are minus log10 of concentrations stated in mol/L.

Give recorded pIC50. C[C@]12CC[C@@H]3c4ccc(O)cc4CC[C@H]3[C@@H]1CC[C@@]2(O)/C=C/CC(F)(F)C(F)(F)C(F)(F)F
5.50

New cases:
Read the entry C[C@]12CC[C@@H]3c4ccc(O)cc4CC[C@H]3[C@@H]1CC[C@@]2(O)/C=C/CC(F)(C(F)(F)F)C(F)(F)F and write its reported pIC50.
4.87

###

target: Mineralocorticoid receptor (Homo sapiens); experiment: Antagonist activity at mineralocorticoid receptor-LBD in human U2OS cells transfected with Gal4-DBD assessed as inhibition of transactivation activity after 18 hrs by luciferase reporter gene assay
Sequence (P08235 whole entry, the tested form may be a part): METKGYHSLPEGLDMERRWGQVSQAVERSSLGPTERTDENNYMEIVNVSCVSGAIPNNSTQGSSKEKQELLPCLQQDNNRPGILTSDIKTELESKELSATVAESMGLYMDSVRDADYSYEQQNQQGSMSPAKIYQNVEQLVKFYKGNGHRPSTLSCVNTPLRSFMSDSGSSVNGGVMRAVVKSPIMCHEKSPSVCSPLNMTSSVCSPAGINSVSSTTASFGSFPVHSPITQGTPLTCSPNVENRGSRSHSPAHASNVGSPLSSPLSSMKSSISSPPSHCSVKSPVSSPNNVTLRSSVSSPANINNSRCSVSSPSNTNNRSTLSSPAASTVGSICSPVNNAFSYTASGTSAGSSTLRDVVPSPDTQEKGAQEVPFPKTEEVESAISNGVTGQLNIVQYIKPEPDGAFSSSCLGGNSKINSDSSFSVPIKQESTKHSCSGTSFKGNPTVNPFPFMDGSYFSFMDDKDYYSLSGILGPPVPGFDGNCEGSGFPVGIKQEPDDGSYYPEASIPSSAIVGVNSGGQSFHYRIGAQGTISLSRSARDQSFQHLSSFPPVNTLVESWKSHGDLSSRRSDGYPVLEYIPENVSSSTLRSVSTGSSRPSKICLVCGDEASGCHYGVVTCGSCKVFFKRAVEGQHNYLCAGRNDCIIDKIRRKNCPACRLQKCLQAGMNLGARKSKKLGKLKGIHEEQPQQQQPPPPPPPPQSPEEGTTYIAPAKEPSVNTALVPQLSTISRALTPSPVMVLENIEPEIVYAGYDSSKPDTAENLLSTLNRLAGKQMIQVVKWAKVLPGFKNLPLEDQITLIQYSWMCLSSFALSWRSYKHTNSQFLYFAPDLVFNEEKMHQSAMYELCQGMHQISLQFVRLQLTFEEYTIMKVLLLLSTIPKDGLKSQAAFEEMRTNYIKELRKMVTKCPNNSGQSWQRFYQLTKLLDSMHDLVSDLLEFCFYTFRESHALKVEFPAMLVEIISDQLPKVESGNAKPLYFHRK
metric: IC50

Recorded IC50, per entry:
Return IC50 for the following molecule: C[C@]12CC[C@@H]3c4ccc(O)cc4CC[C@H]3[C@@H]1CC[C@@]2(O)C/C=C/CC(F)(F)C(F)(F)C(F)(F)C(F)(F)C(F)(F)C(F)(F)F
< 4.82 µM

Given the molecule C[C@]12CC[C@@H]3c4ccc(O)cc4CC[C@H]3[C@@H]1CC[C@@]2(O)/C=C/CC(F)(C(F)(F)F)C(F)(F)F , write its reported IC50.
< 6.65 µM

Now for another entry.
Please supply the value of reported IC50 for the item C[C@]12CC[C@@H]3c4ccc(O)cc4CC[C@H]3[C@@H]1CC[C@@]2(O)/C=C/CC(F)(F)C(F)(F)C(F)(F)C(F)(F)C(F)(F)C(F)(F)F
< 5.36 µM

###

Recorded pIC50 by entry
molecular target: Estrogen receptor beta (Homo sapiens, UniProt Q92731); test: Antagonist activity at ERbeta-LBD in human U2OS cells transfected with Gal4-DBD assessed as inhibition of transactivation activity after 18 hrs by luciferase reporter gene assay
Sequence (Q92731 whole entry, the tested form may be a part): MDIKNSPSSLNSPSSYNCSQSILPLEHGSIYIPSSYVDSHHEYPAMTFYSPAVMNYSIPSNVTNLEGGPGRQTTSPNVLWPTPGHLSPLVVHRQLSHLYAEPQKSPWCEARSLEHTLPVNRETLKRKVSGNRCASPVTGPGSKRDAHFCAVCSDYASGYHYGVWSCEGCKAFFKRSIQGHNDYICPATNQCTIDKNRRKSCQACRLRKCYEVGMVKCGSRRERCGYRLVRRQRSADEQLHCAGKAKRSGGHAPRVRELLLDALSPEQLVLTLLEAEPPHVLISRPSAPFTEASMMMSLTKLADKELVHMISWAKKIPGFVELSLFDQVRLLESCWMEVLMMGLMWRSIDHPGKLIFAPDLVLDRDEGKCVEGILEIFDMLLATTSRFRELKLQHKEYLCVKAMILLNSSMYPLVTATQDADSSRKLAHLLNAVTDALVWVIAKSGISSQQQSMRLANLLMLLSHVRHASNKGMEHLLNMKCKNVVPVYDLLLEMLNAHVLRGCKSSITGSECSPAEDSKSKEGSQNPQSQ
pIC50: −log10 of the molar value.

Respond only with pIC50 recorded for C[C@]12CC[C@@H]3c4ccc(O)cc4CC[C@H]3[C@@H]1CC[C@@]2(O)/C=C/CC(F)(F)C(F)(F)C(F)(F)C(F)(F)C(F)(F)C(F)(F)F
> 4.93

Further cases:
Consider the molecule COc1ccc2c(c1)CC[C@@H]1[C@@H]2CC[C@@]2(C)[C@H]1CC[C@@]2(O)/C=C/CC(F)(F)C(F)(F)C(F)(F)F and give its recorded pIC50.
> 4.80

Specify measured pIC50 for C[C@]12CC[C@@H]3c4ccc(O)cc4CC[C@H]3[C@@H]1CC[C@@]2(O)C/C=C/CC(F)(C(F)(F)F)C(F)(F)F .
> 5.39
